# Measurement target: RhlB;RNase E (694-790) (Escherichia coli;Escherichia coli, UniProt P0A8J8;P21513 1-421;694-790, |)
# Sequence (P0A8J8 whole entry, chain 1 of 2): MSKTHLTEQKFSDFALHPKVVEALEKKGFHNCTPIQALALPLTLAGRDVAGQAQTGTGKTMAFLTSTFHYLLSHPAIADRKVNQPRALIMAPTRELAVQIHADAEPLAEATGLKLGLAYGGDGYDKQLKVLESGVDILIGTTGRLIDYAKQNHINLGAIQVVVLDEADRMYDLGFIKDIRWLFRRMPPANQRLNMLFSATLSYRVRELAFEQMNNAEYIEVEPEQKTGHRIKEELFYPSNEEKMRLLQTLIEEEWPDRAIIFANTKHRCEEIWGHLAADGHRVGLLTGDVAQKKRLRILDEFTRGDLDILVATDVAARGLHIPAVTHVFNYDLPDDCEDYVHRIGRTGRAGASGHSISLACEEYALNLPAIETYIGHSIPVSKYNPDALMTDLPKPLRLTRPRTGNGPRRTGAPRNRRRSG
# Sequence (P21513 694-790, chain 2 of 2): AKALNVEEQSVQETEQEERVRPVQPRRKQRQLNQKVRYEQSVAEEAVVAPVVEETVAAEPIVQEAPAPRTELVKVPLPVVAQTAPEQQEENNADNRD
# Protocol notes: NMR (1H imino titration); no ATP; 4.5 mM Mg2+; NMR: 150 mM KCl, 25 mM Tris/HCl, 5 mM DTT, 4.5 mM MgCl2, pH 8.3, 288 K, 100 µM RNA; EMSA: 150 mM NaCl, 25 mM Tris, 1.5 mM MgCl2, 5 mM DTT, 10% glycerol, pH 8.3, 4 C, 1.5 µM RNA
# Details: protein: recombinant;recombinant; tags: C-terminal TEV site (ENLYFQG) + 6xHis; His-tag removed by TEV, site remnant left;N-terminal 6xHis-TEV; purified analogously (tag cleaved); copies: 1;1; label: none (titration); single strand; two weak base pairs under NMR conditions

| Binder | Kd [µM] |
| --- | --- |
| UAGUAACUAAAACAUUAAAUU (ssRNA) [21 nt single strand] | 264 |

The origin of these recorded values is paper PMC10500059.
